assay: decreased DLD-1 cellular survival, CellTiter-Glo luminescent readout, NPC compound collection, primary HTS (AID 1117346); details: DLD-1 viability, CellTiter-Glo luminescence; at 20 µM (top of the series)
The source made the active and inactive calls.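 How the source made its calls: active means compounds that lower survival of DLD-1 colon cancer cells in the luminescence readout, no cutoff given; inactive means the rest.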
Parameter: viability decrease (inhibition)

Prompt: Any idea what its viability decrease (inhibition) is? The molecule is "NCc1cccnc1"
Completion: -13.1% (inactive)

Prompt: Item: "CN1C(=O)CN=C(c2ccccc2)c2cc([N+](=O)[O-])ccc21"
Completion: 1.05% (inactive)

Prompt: Item: C[C@@H]1CN(C2CCC(C#N)(c3ccc(F)cc3)CC2)CC[C@]1(C(=O)O)c1ccccc1 (stereo not given in full)
Completion: 30.7% (inactive)

Prompt: Item: "C1CN2CCC1CC2"
Completion: 3.1% (inactive)

Prompt: Item: O=P1(N(CCCl)CCCl)NCCCO1 (stereo not given)
Completion: -8.15% (inactive)

Prompt: Item: "O=C(CCCN1CCC(n2c(=O)[nH]c3ccccc32)CC1)c1ccc(F)cc1"
Completion: 2.6% (inactive)

Prompt: Item: CCOC(=O)c1cncn1C(C)c1ccccc1 (stereo not given)
Completion: -22.4% (inactive)

Prompt: Item: CCOC(=O)NC(O)C(Cl)(Cl)Cl (stereo not given)
Completion: 4.55% (inactive)

Prompt: Item: "CNC(C)(C)Cc1ccccc1"
Completion: -5.3% (inactive)

Prompt: Item: O=C(NC(O)C(Cl)(Cl)Cl)NC(O)C(Cl)(Cl)Cl (stereo not given)
Completion: -0.1% (inactive)

Prompt: Item: "CC[n+]1c(-c2ccccc2)c2cc(N)ccc2c2ccc(N)cc21"
Completion: 83.7% (active)

Prompt: Item: CC1(C)C(C=C(Cl)Cl)C1C(=O)OC(C#N)c1cccc(Oc2ccccc2)c1 (stereo not given)
Completion: 23.2% (active)

Prompt: Item: Clc1ccc(COC(Cn2ccnc2)c2ccc(Cl)cc2Cl)cc1 (stereo not given)
Completion: 103% (active)

Prompt: Item: "CCCN1CCC[C@@H]2Cc3nc(N)ncc3C[C@H]21"
Completion: -14.6% (inactive)

Prompt: Item: "COc1cccc([C@@]2(O)CCCC[C@@H]2CN(C)C)c1"
Completion: 20.8% (inactive)

Prompt: Item: Cc1nnc2n1-c1sc(CCc3ccc(CC(C)C)cc3)cc1C(c1ccccc1Cl)=NC2C (stereo not given)
Completion: 102% (active)

Prompt: Item: NCC(O)c1ccc(O)cc1 (stereo not given)
Completion: 1.65% (inactive)

Prompt: Item: CC(C)N(CCC(C(N)=O)(c1ccccc1)c1ccccn1)C(C)C (stereo not given)
Completion: -13.7% (inactive)

Prompt: Item: "C[C@]12C[C@@H]3S[C@H]3C[C@@H]1CC[C@H]1[C@H]3CC[C@@H](O)[C@@]3(C)CC[C@@H]12"
Completion: -13.3% (inactive)

Prompt: Item: "C[C@@]12CCCCC[C@@H](Cc3ccc(O)cc31)[C@H]2N"
Completion: -12.5% (inactive)

Prompt: Item: "c1ccc(C2CC2)c(OCC2=NCCN2)c1"
Completion: -2.1% (inactive)

Prompt: Item: NCC(O)c1cccc(O)c1 (stereo not given)
Completion: 5.4% (inactive)

Prompt: Item: CNC(C)Cc1ccccc1OC (stereo not given)
Completion: 43.1% (inactive)

Prompt: Item: O=C1OC2(c3cc(Br)c(O)cc3Oc3c2cc(Br)c(O)[c]3[Hg])c2ccccc21 (stereo not given)
Completion: 38.2% (inactive)

Prompt: Item: C[N+]1(CCF)[C@@H]2CC[C@H]1CC(OC(=O)C(O)(c1ccccc1)c1ccccc1)C2 (stereo not given in full)
Completion: -1.5% (inactive)
